Every entry's value here was drawn from ChEMBL document CHEMBL3994646.

assay: Oral bioavailability in rat; assay type: ADME, organism-based; settings: in vivo
assay_endpoint: bioavailability (%)

                              smiles_record  units_of_measure  measured_value
0  CC[C@@H]1c2c(C#N)ncn2-c2cnc(Nc3cc(F)c(C(=O)NC4CCN(C)CC4)cc3OC)nc2N1C(C)C                 %              47

(P) CC[C@@H]1c2c(C#N)ncn2-c2cnc(Nc3cc(F)c(C(=O)N[C@H]4CC[C@H](N5CCN(CC6CC6)CC5)CC4)cc3OC)nc2N1C(C)C
(Q) CC[C@@H]1c2c(C#N)ncn2-c2cnc(Nc3cc(F)c(C(=O)NC4CCN(C)CC4)cc3OC)nc2N1C1CCCC1
(R) CC[C@@H]1c2c(C#N)ncn2-c2cnc(Nc3ccc(C(=O)NC4CCN(C)CC4)cc3OC)nc2N1C1CCCC1
(S) CC[C@@H]1c2c(C#N)ncn2-c2cnc(Nc3ccc(C(=O)NC4CCN(C)CC4)cc3OC)nc2N1C(C)C
// query Ranking field: bioavailability; order: falling. Record the ranking as a list of labels in the requested order.
// result P, Q, S, R
(P: 100%, Q: 49%, S: 0.5%, R: 0%)

* * *

experiment: Half life in mouse at 1 mg/kg, iv; format: ADME, organism-based; conditions: in vivo
assay_endpoint: half-life (h)
Express your answer in h, writing the number without its unit.

// query What value of measured half-life is listed for CC[C@@H]1c2c(C#N)ncn2-c2cnc(Nc3cc(F)c(C(=O)N[C@H]4CC[C@H](N5CCN(CC6CC6)CC5)CC4)cc3OC)nc2N1C(C)C ?
// result 4.7

* * *

assay: Tmax in mouse at 5 mg/kg, po; format: ADME, organism-based; conditions: in vivo
assay_endpoint: Tmax (h)
Express your answer in h, writing the number without its unit.

// query What value of measured Tmax is listed for CC[C@@H]1c2c(C#N)ncn2-c2cnc(Nc3cc(F)c(C(=O)N[C@H]4CC[C@H](N5CCN(CC6CC6)CC5)CC4)cc3OC)nc2N1C(C)C ?
// result 4

* * *

experiment: Clearance in rat; assay type: ADME; conditions: in vivo
assay_endpoint: clearance (mL/min/kg)

(1) CC[C@@H]1c2c(C#N)ncn2-c2cnc(Nc3cc(F)c(C(=O)NC4CCN(C)CC4)cc3OC)nc2N1C1CCCC1
(2) CC[C@@H]1c2c(C#N)ncn2-c2cnc(Nc3ccc(C(=O)NC4CCN(C)CC4)cc3OC)nc2N1C1CCCC1
// query So which one has the bigger clearance here, 1 or 2 ? State your choice using its label.
// result 2
(2: 76 mL/min/kg, 1: 28 mL/min/kg)

* * *

experiment: Mean residence time in mouse at 5 mg/kg, po; type: ADME, organism-based; details: in vivo
assay_endpoint: MRT (h)
Express your answer in h, writing the number without its unit.

// query What value of measured MRT is listed for CC[C@@H]1c2c(C#N)ncn2-c2cnc(Nc3cc(F)c(C(=O)N[C@H]4CC[C@H](N5CCN(CC6CC6)CC5)CC4)cc3OC)nc2N1C(C)C ?
// result 13

* * *

assay: Half life in mouse at 5 mg/kg, po; type: ADME, organism-based; settings: in vivo
assay_endpoint: half-life (h)
Express your answer in h, writing the number without its unit.

// query What value of measured half-life is listed for CC[C@@H]1c2c(C#N)ncn2-c2cnc(Nc3cc(F)c(C(=O)N[C@H]4CC[C@H](N5CCN(CC6CC6)CC5)CC4)cc3OC)nc2N1C(C)C ?
// result 8.5
